Source listed as patent US20200165257A1.

Let's look at some molecules and their measured inhibition at 1 µM.
# tested.target: PI3Kδ (Homo sapiens)
# Sequence (O00329 whole entry): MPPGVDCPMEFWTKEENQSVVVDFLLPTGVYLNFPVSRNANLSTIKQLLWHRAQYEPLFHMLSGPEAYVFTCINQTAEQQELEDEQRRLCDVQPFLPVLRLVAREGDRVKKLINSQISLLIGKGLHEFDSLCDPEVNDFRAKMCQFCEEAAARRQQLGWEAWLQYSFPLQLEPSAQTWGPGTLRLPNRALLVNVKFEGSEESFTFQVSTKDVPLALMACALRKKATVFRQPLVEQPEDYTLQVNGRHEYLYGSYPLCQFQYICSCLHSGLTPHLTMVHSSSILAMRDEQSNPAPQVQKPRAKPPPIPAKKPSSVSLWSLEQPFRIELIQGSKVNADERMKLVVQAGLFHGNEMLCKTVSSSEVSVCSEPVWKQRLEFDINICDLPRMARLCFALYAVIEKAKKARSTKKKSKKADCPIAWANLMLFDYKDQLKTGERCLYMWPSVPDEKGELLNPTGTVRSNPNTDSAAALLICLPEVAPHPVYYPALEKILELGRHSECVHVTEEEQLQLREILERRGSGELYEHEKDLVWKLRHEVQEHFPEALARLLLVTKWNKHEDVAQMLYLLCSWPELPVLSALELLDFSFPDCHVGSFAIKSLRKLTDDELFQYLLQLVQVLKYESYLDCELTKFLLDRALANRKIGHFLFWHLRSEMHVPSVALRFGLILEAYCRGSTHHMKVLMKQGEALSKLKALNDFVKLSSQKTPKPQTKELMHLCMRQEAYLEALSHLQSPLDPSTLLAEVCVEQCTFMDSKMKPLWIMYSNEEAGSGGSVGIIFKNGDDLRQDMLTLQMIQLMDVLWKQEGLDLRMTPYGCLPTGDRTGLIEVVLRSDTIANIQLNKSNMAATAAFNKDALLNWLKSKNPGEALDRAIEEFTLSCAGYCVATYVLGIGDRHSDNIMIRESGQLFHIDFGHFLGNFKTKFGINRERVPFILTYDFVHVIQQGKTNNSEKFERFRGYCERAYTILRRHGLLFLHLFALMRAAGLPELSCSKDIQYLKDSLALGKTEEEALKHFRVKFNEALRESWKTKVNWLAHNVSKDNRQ
# Sequence (P27986 whole entry partner): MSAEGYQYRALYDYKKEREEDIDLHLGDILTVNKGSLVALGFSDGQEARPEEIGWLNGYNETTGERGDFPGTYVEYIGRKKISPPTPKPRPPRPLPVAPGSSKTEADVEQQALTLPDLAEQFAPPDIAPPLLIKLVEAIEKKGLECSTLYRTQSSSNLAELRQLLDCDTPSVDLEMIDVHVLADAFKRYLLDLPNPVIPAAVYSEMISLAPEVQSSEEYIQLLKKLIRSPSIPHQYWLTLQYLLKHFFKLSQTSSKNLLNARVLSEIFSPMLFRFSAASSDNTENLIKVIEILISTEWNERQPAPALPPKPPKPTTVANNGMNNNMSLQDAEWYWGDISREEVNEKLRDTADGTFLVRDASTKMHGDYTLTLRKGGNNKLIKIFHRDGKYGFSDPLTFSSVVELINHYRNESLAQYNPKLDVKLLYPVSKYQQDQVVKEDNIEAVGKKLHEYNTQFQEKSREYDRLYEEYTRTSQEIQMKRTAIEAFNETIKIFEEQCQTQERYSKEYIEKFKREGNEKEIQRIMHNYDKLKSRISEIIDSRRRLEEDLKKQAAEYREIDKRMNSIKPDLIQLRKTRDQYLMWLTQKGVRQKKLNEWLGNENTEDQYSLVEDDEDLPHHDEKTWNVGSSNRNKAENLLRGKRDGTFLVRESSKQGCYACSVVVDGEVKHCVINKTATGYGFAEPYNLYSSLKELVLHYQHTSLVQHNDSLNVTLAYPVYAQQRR
# protocol.description: PI3Kδ kinase assay (HTRF)
# Assay type: biochemical
# reported.conditions: @ 1 μM; symbols ** / *; read-out: PI3Kδ Inhibition Activity (% Inhibition class)

Look over these answered cases.
>>> reported_result("CC[C@H](Nc1ncnc2[nH]cnc12)c1nc(N2CCN(c3nc(C(=O)NO)cs3)CC2)c2ccccc2n1")
"< 90%"
>>> reported_result("CC[C@H](Nc1ncnc2[nH]cnc12)c1nc(N2CCN(c3nc(C(=O)NO)co3)CC2)c2ccccc2n1")
"< 90%"
>>> reported_result("CC[C@H](Nc1ncnc2[nH]cnc12)c1nc2cccc(CC(=O)c3ccc(C(=O)NO)cc3)c2c(=O)n1-c1ccccc1")
"> 90%"
>>> reported_result("CC[C@H](Nc1nc(N)nc(C)c1C#N)c1nc2cccc(N3CCC(CC(=O)NO)CC3)c2c(=O)n1-c1ccccc1")
"> 90%"
>>> reported_result("CC[C@H](Nc1ncnc2[nH]cnc12)c1nc2cccc(CC(=O)c3ccc(C(=O)Nc4ccccc4N)cc3)c2c(=O)n1-c1ccccc1")
"> 90%"
>>> reported_result("CC[C@H](Nc1ncnc2[nH]cnc12)c1nc(-c2ccc(C(=O)NO)cc2)c2ccccc2n1")
"< 90%"
>>> reported_result("CC[C@H](Nc1ncnc2[nH]cnc12)c1nc2cccc(CNC(=O)c3cccc(B(O)O)c3)c2c(=O)n1-c1ccccc1")
"> 90%"

[ask] Supply recorded inhibition at 1 µM for CC[C@H](Nc1ncnc2[nH]cnc12)c1nc2cccc(-c3cnc(C(=O)NO)nc3)c2c(=O)n1-c1ccccc1 here.
[reply] > 90%

###

Quick note: these are IC50 numbers for system: PI3Kδ (Homo sapiens)

Look over these answered cases.
>>> reported_result("CC[C@H](Nc1ncnc2[nH]cnc12)c1nc(NCCCCCC(=O)NO)c2ccccc2n1 [XXXI]")
"> 100 nM"
>>> reported_result("CC[C@H](Nc1nc(N)nc(C)c1C#N)c1nc2cccc(CN(C)c3ncc(C(=O)NO)cn3)c2c(=O)n1-c1ccccc1 [LII]")
"< 100 nM"

[ask] Lab note: PI3Kδ (Homo sapiens) assay, enter IC50 for CC[C@H](Nc1nc(N)nc(C)c1C#N)c1nc2cccc(N(C)Cc3ccc(C(=O)NO)cc3)c2c(=O)n1-c1ccccc1 [LI] here
[reply] < 100 nM

[ask] Lab note: PI3Kδ (Homo sapiens) assay, enter IC50 for CC[C@H](Nc1ncnc2[nH]cnc12)c1nc2cccc(CCCCNC(=O)NO)c2c(=O)n1-c1ccccc1 [Compound XXIV] here
[reply] < 100 nM

###

# tested.target: UniProt:Q9UBN7
# Sequence (Q9UBN7 1-1215): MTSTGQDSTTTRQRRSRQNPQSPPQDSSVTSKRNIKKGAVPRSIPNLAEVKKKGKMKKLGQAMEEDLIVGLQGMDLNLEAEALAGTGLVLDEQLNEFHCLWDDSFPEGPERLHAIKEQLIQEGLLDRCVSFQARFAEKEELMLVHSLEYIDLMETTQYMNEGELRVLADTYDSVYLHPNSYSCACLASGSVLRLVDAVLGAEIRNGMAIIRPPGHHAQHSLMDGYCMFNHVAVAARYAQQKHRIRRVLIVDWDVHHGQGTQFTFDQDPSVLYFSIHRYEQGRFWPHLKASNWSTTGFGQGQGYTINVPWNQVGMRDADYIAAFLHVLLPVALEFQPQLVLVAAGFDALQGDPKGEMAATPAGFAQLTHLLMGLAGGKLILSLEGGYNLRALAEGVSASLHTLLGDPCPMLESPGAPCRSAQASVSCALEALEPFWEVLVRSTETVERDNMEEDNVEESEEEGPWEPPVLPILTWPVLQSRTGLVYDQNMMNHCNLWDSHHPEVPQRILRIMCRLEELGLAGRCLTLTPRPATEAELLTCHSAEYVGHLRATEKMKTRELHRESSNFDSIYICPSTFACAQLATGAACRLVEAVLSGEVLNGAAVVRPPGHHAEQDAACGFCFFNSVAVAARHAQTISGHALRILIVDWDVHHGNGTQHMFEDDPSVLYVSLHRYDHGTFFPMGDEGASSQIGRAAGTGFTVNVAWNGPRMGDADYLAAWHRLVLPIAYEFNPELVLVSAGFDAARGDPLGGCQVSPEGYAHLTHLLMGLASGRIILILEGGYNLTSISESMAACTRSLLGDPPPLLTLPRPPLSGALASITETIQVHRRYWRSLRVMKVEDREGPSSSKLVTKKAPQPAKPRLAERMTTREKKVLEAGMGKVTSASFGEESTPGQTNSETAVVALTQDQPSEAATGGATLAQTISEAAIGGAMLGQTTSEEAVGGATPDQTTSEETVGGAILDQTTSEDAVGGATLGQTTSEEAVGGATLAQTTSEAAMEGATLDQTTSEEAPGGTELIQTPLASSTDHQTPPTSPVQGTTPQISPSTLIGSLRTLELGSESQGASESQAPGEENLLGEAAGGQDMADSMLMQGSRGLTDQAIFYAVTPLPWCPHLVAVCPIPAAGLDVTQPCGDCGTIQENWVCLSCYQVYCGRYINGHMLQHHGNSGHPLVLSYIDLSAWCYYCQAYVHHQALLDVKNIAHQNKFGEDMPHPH
observable: IC50

Look over these answered cases.
>>> reported_result("CC[C@H](Nc1ncnc2[nH]cnc12)c1nc(NCCCCCC(=O)NO)c2ccccc2n1 [XXXI]")
"< 100 nM"
>>> reported_result("CC[C@H](Nc1nc(N)nc(C)c1C#N)c1nc2cccc(N(C)Cc3ccc(C(=O)NO)cc3)c2c(=O)n1-c1ccccc1 [LI]")
"< 100 nM"
>>> reported_result("O=C(NO)c1ccc(CNc2cccc3nc(C4CC4)n(-c4ccccc4)c(=O)c23)cc1 [LXI]")
"< 100 nM"
>>> reported_result("CC[C@H](Nc1ncnc2[nH]cnc12)c1nc2cccc(CCCCNC(=O)NO)c2c(=O)n1-c1ccccc1 [Compound XXIV]")
"> 100 nM"
>>> reported_result("O=C(CCCCNc1cccc2nc(C3CC3)n(-c3ccccc3)c(=O)c12)NO [LXIII]")
"> 100 nM"
>>> reported_result("Cc1nc2cccc(NCCCCC(=O)NO)c2c(=O)n1-c1ccccc1 [LXII]")
"> 100 nM"
>>> reported_result("Cc1nc2cccc(NCc3ccc(C(=O)NO)cc3)c2c(=O)n1-c1ccccc1 [Compound LX]")
"< 100 nM"

Now examine the next entry.
[ask] Lab note: UniProt:Q9UBN7 assay, enter IC50 for CC[C@H](Nc1nc(N)nc(C)c1C#N)c1nc2cccc(CN(C)c3ncc(C(=O)NO)cn3)c2c(=O)n1-c1ccccc1 [LII] here
[reply] < 100 nM
